Target: Protein phosphatase methylesterase 1 (Homo sapiens)
Experiment: PME-1 inhibitor activity retest, confirmation, biochemical, fluorescence polarization, FP-Rh probe, triplicate (AID 2171)
Conditions: recombinant PME-1, FP-Rh probe fluorescence polarization; at 5.9 µM
Activity calls are given as the source filed them.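 The calls were made as follows: active = inhibition above the hit cutoff set in the earlier primary screen (cut at about 27% in these data); inactive = the rest.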
Log the outcome using a class from active, inactive

# query.smiles, experimental.system, assigned.category
data = [
    ("C=CCn1c(SCC(=O)N2CCCC2=O)nc2sc(CC)cc2c1=O", "Protein phosphatase methylesterase 1 (Homo sapiens)", "inactive"),
    ("COc1ccc(-c2sc(Nc3ccc(F)c(F)c3F)nc2CCC(=O)NN)cc1", "Protein phosphatase methylesterase 1 (Homo sapiens)", "inactive"),
    ("Cc1ccc(C(=O)N/N=C/c2ccc(-c3ccc(Br)cc3[N+](=O)[O-])o2)o1", "Protein phosphatase methylesterase 1 (Homo sapiens)", "active"),
    ("COc1ccc(N=Nc2nc(-c3ccccc3)c(-c3ccccc3)[nH]2)cc1", "Protein phosphatase methylesterase 1 (Homo sapiens)", "inactive"),
    ("Oc1cccc(NC(=S)N=Nc2c(O)[nH]c3ccc(Br)cc23)c1", "Protein phosphatase methylesterase 1 (Homo sapiens)", "active"),
]

Consider the additional compound presented here.
Incoming: Short answer needed: outcome of this test for Cn1c(=N)n(CC(=O)c2ccc(Br)cc2)c2ccccc21 ?
Outgoing: inactive
